Recorded measurements of Mean % WT Binding, one per entry
- target-or-system: human CD33 P184A (human, UniProt P20138 18-364)
- Sequence (P20138 18-364 P184A limits assumed): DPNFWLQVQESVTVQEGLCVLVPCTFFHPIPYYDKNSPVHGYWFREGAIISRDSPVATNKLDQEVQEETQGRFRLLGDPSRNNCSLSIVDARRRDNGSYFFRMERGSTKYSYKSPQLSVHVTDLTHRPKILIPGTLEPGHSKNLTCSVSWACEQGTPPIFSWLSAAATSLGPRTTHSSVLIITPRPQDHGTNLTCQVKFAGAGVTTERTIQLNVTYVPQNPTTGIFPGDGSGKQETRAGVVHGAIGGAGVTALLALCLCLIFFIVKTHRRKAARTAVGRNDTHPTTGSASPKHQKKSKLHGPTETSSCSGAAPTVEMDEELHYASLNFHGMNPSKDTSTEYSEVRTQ
- experiment-notes: alanine scan, flow cytometry, HEK293-T;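 note: antibody binding to each alanine-substituted CD33 mutant expressed transiently in HEK293-T, read as fluorescence minus background, mean of duplicates, relative to wild-type CD33 set as 100%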
Answer shape: numeric part, then the unit.

Past entries and their recorded results:
- Refmab #4 (antibody, V domains shown, In the alanine scan antibodies were used as IgG or Fab) VH: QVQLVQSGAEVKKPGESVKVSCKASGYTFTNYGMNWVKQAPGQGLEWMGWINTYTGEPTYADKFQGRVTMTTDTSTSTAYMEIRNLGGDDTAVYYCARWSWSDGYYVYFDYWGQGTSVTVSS VL: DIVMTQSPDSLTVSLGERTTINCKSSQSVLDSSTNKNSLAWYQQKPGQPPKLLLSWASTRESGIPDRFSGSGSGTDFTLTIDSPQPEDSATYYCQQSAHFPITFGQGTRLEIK: 79.4%
- Refmab #2 (antibody, V domains shown, In the alanine scan antibodies were used as IgG or Fab) VH: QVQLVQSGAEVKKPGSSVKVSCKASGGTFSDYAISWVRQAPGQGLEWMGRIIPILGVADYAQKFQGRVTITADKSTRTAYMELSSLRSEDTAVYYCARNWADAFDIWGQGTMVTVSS VL: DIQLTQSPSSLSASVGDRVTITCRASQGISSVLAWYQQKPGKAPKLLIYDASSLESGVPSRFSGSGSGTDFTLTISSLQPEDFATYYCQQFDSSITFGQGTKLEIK: 111%
- Refmab #3 (antibody, V domains shown, In the alanine scan antibodies were used as IgG or Fab) VH: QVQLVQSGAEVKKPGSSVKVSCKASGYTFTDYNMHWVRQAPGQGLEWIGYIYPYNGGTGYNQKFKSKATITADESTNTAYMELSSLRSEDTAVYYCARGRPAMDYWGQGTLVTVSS VL: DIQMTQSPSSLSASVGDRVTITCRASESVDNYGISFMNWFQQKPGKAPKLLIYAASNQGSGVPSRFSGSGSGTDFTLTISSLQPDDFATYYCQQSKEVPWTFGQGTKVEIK: 103%

GET /values?readout=Mean % WT Binding&item= Refmab #1 (antibody, V domains shown, In the alanine scan antibodies were used as IgG or Fab; also called hP67.6) VH: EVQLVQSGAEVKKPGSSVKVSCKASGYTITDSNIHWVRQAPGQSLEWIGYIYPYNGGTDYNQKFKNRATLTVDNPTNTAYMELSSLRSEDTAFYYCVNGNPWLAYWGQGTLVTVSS VL: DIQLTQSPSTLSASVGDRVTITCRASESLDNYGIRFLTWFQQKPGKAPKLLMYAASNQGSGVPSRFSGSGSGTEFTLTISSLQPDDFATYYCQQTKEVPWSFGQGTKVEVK
82.9%

Value source: patent US20260242735A1
